- test_target: T1, Human soluble Her-2 (Bender Med Systems, Austria) (human, UniProt P04626 23-652, biotinylated (sulfo-LC-LC-biotin) when used for yeast FACS staining; unlabelled in ELISA and SPR)
- T1 construct: extracellular domain; given only as 'human soluble Her-2'; also called recombinant antigen Her2 (Bendermedsystems); Her2-biotin
- method_summary: ELISA, human soluble Her-2 coated at 2 ug/ml, Fcab titrated, anti-Fc CH2-HRP detection
pEC50: −log10 of the molar value.
// pEC50 lookup, one value per entry
test_readout: pEC50

{"binder": "y-Her.C2.P4.2-9 (designed binder) EPKSCDKTHTCPPCPAPELLGGPSVFLFPPKPKDTLMISRTPEVTCVVVDVSHEDPEVKFNWYVDGVEVHNAKTKPREEQYNSTYRVVSVLTVLHQDWLNGKEYKCKVSNKALPAPIEKTISKAKGQPREPQVYTLPPSRDEYLHGDVSLTCLVKGFYPSDIAVEWESNGQPENNYKTTPPVLDSDGSFFLYSKLTVARYSPRMLRWAHGNVFSCSVMHEALHNHYTQKSLSLSPGK", "measured_number": 8.37}
{"binder": "y-Her.C2.P4.2-4 (designed binder) EPKSCDKTHTCPPCPAPELLGGPSVFLFPPKPKDTLMISRTPEVTCVVVDVSHEDPEVKFNWYVDGVEVHNAKTKPREEQYNSTYRVVSVLTVLHQDWLNGKEYKCKVSNKALPAPIEKTISKAKGQPREPQVYTLPPSRDEYSDGDVSLTCLVKGFYPSDIAVEWESNGQPENNYKTTPPVLDSDGSFFLYSKLTVARYSPRMLRWAHGNVFSCSVMHEALHNHYTQKSLSLSPGK", "measured_number": 6.43}
{"binder": "y-Her.C2.P4.2-19 (designed binder) EPKSCDKTHTCPPCPAPELLGGPSVFLFPPKPKDTLMISRTPEVTCVVVDVSHEDPEVKFNWYVDGVEVHNAKTKPREEQYNSTYRVVSVLTVLHQDWLNGKEYKCKVSNKALPAPIEKTISKAKGQPREPQVYTLPPSRDEYRSGEVSLTCLVKGFYPSDIAVEWESNGQPENNYKTTPPVLDSDGSFFLYSKLTVARYSPRMLRWAHGNVFSCSVMHEALHNHYTQKSLSLSPGK", "measured_number": 7.03}
{"binder": "H561G3M1G4 (designed binder) EPKSCDKTHTCPPCPAPELLGGPSVFLFPPKPKDTLMISRTPEVTCVVVDVSHEDPEVKFNWYVDGVEVHNAKTKPREEQYNSTYRVVSVLTVLHQDWLNGKEYKCKVSNKALPAPIEKTISKAKGQPREPQVYTLPPSRDEFFTYWVSLTCLVKGFYPSDIAVEWESNGQPENNYKTTPPVLDSDGSFFLYSKLTVDRRRWTAGNVFSCSVMHEALHNHYTQKSLSLSPGK", "measured_number": 6.58}

Numbers sourced from patent US20110046355A1.
